- target.system: T1, N36 peptide of HIV-1 gp41 (HIV-1)
- T1 construct: Synthetic peptide; forms the trimeric N36 coiled-coil of the N36/C34 complex
- test.details: circular dichroism thermal melt of the N36/C34 variant complex
measure.name: Tm (apparent melting temperature of the N36/C34 complex) (° C.)
Please state the figure in ° C.; there is no need to write the unit.

Some solved entries appear below for comparison.
Ac-WMEFDREINNYTSLIHSLIEESQNQQEKNEQELL-NH2 [C34 peptide Trp^631→Phe] :: 59
Ac-WMELDREINNYTSLIHSLIEESQNQQEKNEQELL-NH2 [C34 peptide Trp^631→Leu] :: 50

Query block: State the recorded Tm (apparent melting temperature of the N36/C34 complex) for this entry: Ac-WMEGDREINNYTSLIHSLIEESQNQQEKNEQELL-NH2 (Position in gp41 numbering) [C34 peptide Trp^631→Gly]
Result block: 35

Query block: For Ac-WMEVDREINNYTSLIHSLIEESQNQQEKNEQELL-NH2 [C34 peptide Trp^631→Val] then?
Result block: 43
